EC50 by entry:
biological target: recombinant human AMPK complex 1 (containing α1β1γ1) (Homo sapiens, UniProt Q13131+Q9Y478); experiment: In vitro AMPK activation assay (AMPKSAMSF); type: biochemical; details: recombinant human AMPK complex 1 (α1β1γ1)
Sequence (Q13131 whole entry): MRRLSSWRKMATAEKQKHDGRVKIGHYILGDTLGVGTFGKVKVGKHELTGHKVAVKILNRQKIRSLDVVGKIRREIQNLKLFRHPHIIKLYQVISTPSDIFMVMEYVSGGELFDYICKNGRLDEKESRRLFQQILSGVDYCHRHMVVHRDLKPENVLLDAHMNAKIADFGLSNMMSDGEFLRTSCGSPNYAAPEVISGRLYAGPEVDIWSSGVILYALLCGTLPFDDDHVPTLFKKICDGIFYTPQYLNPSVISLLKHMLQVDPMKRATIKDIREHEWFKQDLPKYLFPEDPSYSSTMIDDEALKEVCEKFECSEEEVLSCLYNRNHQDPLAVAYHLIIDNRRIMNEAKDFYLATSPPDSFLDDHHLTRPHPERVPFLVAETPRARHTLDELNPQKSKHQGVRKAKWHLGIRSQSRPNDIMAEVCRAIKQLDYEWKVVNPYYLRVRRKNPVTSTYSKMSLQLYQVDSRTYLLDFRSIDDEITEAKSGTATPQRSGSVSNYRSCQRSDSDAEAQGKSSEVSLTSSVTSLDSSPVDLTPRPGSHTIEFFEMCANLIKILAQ
Sequence (Q9Y478 whole entry): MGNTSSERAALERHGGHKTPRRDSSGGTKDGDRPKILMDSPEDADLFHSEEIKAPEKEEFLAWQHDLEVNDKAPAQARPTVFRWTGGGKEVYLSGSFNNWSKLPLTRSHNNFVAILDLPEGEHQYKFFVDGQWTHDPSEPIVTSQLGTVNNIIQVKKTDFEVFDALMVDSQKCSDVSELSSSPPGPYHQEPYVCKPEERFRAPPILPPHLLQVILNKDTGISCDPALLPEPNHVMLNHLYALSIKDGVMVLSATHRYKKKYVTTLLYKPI
Sequence (P54619 whole entry partner): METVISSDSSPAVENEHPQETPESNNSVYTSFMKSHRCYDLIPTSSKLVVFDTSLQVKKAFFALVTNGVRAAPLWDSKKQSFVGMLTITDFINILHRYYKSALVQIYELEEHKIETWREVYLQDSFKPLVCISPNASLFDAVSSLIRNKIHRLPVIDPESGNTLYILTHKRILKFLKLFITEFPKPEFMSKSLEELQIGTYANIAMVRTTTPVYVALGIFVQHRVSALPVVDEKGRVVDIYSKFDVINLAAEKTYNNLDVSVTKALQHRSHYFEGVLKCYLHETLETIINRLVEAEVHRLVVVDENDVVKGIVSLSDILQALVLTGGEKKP

[
  {
    "smiles_string": "Cc1ccc(Oc2nc3cc(-c4ccc(N5CCOCC5)cc4)c(Cl)cc3[nH]2)cc1P(=O)(O)O",
    "EC50": "1.2 nM"
  },
  {
    "smiles_string": "O=P(O)(O)c1cccc(Oc2nc3cc(-c4ccc(-c5ccccc5)cc4)c(Cl)cc3[nH]2)c1",
    "EC50": "2.5 nM"
  },
  {
    "smiles_string": "Cc1ccc(Oc2nc3cc(-c4ccc(N5CCCC5)cc4)c(Cl)cc3[nH]2)cc1P(=O)(O)O",
    "EC50": "1.1 nM"
  },
  {
    "smiles_string": "Cc1ccc(Oc2nc3cc(-c4ccc(-c5ccccc5)cc4)c(Cl)cc3[nH]2)cc1P(=O)(O)O",
    "EC50": "0.9 nM"
  }
]

----------
biological target: recombinant human AMPK complex 1 (containing α1β1γ1) (Homo sapiens, UniProt Q13131+Q9Y478); experiment: In vitro AMPK activation assay (AMPKSAMSF); assay type: biochemical; conditions: recombinant human AMPK complex 1 (α1β1γ1); read-out: maximum AMP activation
Reported Emax values follow for various compounds

[
  {
    "compound": "O=P(O)(O)c1cccc(Oc2nc3cc(-c4ccc(-c5ccccc5)cc4)c(F)cc3[nH]2)c1",
    "Emax": "> 80%"
  },
  {
    "compound": "Cc1ccc(Oc2nc3cc(-c4ccc(N5CCOCC5)cc4)c(Cl)cc3[nH]2)cc1P(=O)(O)O",
    "Emax": "> 80%"
  },
  {
    "compound": "Cc1ccc(Oc2nc3cc(-c4ccc(-c5ccccc5)cc4)c(Cl)cc3[nH]2)cc1[P@@]1(=O)OCC[C@H](c2cccc(Cl)c2)O1 (relative stereo)",
    "Emax": "> 80%"
  },
  {
    "compound": "Cc1ccc(Oc2nc3cc(-c4ccc(-c5ccccc5)cc4)c(Cl)cc3[nH]2)cc1[P@@]1(=O)OCC[C@@H](c2cccc(Cl)c2)O1 (relative stereo)",
    "Emax": "> 80%"
  },
  {
    "compound": "CCOC(=O)CNP(=O)(NCC(=O)OCC)c1cc(Oc2nc3cc(-c4ccc5c(ccn5C)c4)c(Cl)cc3[nH]2)ccc1C",
    "Emax": "> 80%"
  },
  {
    "compound": "Cc1ccc(Cc2nc3cc(-c4ccc(-c5ccccc5)cc4)c(Cl)cc3[nH]2)cc1P(=O)(O)O",
    "Emax": "> 80%"
  }
]

----------
target: recombinant human AMPK complex 1 (containing α1β1γ1) (Homo sapiens, UniProt Q13131+Q9Y478); test: In vitro AMPK activation assay (AMPKSAMSF); type: biochemical; conditions: recombinant human AMPK complex 1 (α1β1γ1); basal activity subtracted
Listing: % Maximum AMP Activation of human AMPK Complex 1 of selected compounds
attribute_measured: % Maximum AMP Activation of human AMPK Complex 1 (%)

[
  {
    "smiles_string": "Cn1ccc2cc(-c3cc4nc(Oc5cccc(P(=O)(O)O)c5)[nH]c4cc3Cl)ccc21",
    "experimental_value": 173
  },
  {
    "smiles_string": "O=P(O)(O)c1cccc(Oc2nc3cc(-c4ccc(-c5ccccc5)cc4)c(Cl)cc3[nH]2)c1",
    "experimental_value": 205
  },
  {
    "smiles_string": "Cc1ccc(Oc2nc3cc(-c4ccc(N5CCOCC5)cc4)c(Cl)cc3[nH]2)cc1P(=O)(O)O",
    "experimental_value": 224
  },
  {
    "smiles_string": "Cc1ccc(Oc2nc3cc(-c4ccc(N5CCCC5)cc4)c(Cl)cc3[nH]2)cc1P(=O)(O)O",
    "experimental_value": 223
  },
  {
    "smiles_string": "Cc1ccc(Oc2nc3cc(-c4ccc(C5CCCCC5)cc4)c(Cl)cc3[nH]2)cc1P(=O)(O)O",
    "experimental_value": 257
  },
  {
    "smiles_string": "Cc1ccc(Oc2nc3cc(C#Cc4ccccc4)c(Cl)cc3[nH]2)cc1P(=O)(O)O",
    "experimental_value": 192
  },
  {
    "smiles_string": "Cc1ccc(Oc2nc3cc(-c4ccc(-c5ccccc5)cc4)c(Cl)cc3[nH]2)cc1P(=O)(O)O",
    "experimental_value": 175
  }
]

----------
target: recombinant human AMPK complex 1 (containing α1β1γ1) (Homo sapiens, UniProt Q13131+Q9Y478); assay: In vitro AMPK activation assay (AMPKSAMSF); details: recombinant human AMPK complex 1 (α1β1γ1)
# EC50 listing for each entry below

[
  {
    "smiles_string": "Cc1ccc(Oc2nc3cc(C#Cc4ccccc4)c(Cl)cc3[nH]2)cc1P(=O)(O)O",
    "measured_target": "recombinant human AMPK complex 1 (containing α1β1γ1) (Homo sapiens, UniProt Q13131+Q9Y478)",
    "EC50 [nM]": 0.7
  },
  {
    "smiles_string": "Cc1ccc(Oc2nc3cc(-c4ccc(C5CCCCC5)cc4)c(Cl)cc3[nH]2)cc1P(=O)(O)O",
    "measured_target": "recombinant human AMPK complex 1 (containing α1β1γ1) (Homo sapiens, UniProt Q13131+Q9Y478)",
    "EC50 [nM]": 4.9
  },
  {
    "smiles_string": "Cn1ccc2cc(-c3cc4nc(Oc5cccc(P(=O)(O)O)c5)[nH]c4cc3Cl)ccc21",
    "measured_target": "recombinant human AMPK complex 1 (containing α1β1γ1) (Homo sapiens, UniProt Q13131+Q9Y478)",
    "EC50 [nM]": 0.6
  }
]
